- EXPERIMENTAL DETAILS: in vitro
- STATED CONDITIONS: both, human, s9, 0.5 h, 1 μM
MEASURED PROPERTY: % Remaining of Initial (n = 1), 30 min (%)

1) CC/C=C\C/C=C\C/C=C\C/C=C\C/C=C\CCCC(=O)OCCNC(=O)CCCCCCCCCCCCCCC [Compound I-5] | 70
2) CCCCCCCCCCCCCCCC(=O)NCCOC(=O)CCC(=O)OCC(COC(=O)CCCCCCC)OC(=O)CCCCCCC (stereo not shown) [Compound I-3, PEA-Succinate-Glycerol-Di-Caprylic] | 95
3) CCCCC/C=C\C/C=C\CCCCCCCC(=O)OCCNC(=O)CCCCCCCCCCCCCCC [Compound I-6] | 95

---

- EXPERIMENTAL DETAILS: Liver microsomal stability, rat
- STATED CONDITIONS: male, Sprague-Dawley, microsomes, CLint, Control Compound, Rat liver microsomes
MEASURED PROPERTY: microsomal CLint (µL/min/mg)

1. C[C@]12CC[C@H]3[C@@H](CCC4=CC(=O)CC[C@@]43C)[C@@H]1CC[C@@H]2O [Testosterone, testosterone, reference compound] | 1010

---

- EXPERIMENTAL DETAILS: in vitro
- STATED CONDITIONS: male, Beagle, dog, 0 min, 1 μM
MEASURED PROPERTY: Concentration (μM) of analyte PEA, 0 min (µM)

1. CC/C=C\C/C=C\C/C=C\C/C=C\C/C=C\CCCC(=O)OCCNC(=O)CCCCCCCCCCCCCCC | 0.13
2. CCCCCCCCCCCCCCCC(=O)NCCOC(=O)CCC(=O)OCC(COC(=O)CCCCCCC)OC(=O)CCCCCCC (stereo not drawn) [Compound I-3, PEA-Succinate-Glycerol-Di-Caprylic] | 0.015
3. CCCCCCCCCCCCCCCC(=O)NCCOC(=O)CCC(=O)OCC(COC(=O)CCC)OC(=O)CCC (stereo not drawn) | 0.032

---

- EXPERIMENTAL DETAILS: Pharmacokinetics of PEA after intravenous administration in male Sprague-Dawley rats
- Format: in vivo, Sprague-Dawley rat
- STATED CONDITIONS: male, Sprague-Dawley, rat, in vivo, iv, 1 mg/kg, AUClast, Mean
MEASURED PROPERTY: AUC(0-t) (ng·h/mL)

1) CCCCCCCCCCCCCCCC(=O)NCCO [PEA, palmitoylethanolamide] | 62.1

---

- EXPERIMENTAL DETAILS: Pharmacokinetics of PEA after intravenous administration in male Sprague-Dawley rats
- Assay type: in vivo, Sprague-Dawley rat
- STATED CONDITIONS: male, Sprague-Dawley, rat, in vivo, iv, 1 mg/kg, Plasma concentration of PEA, individual rats
MEASURED PROPERTY: concentration at 0.083 hr (ng/mL)

1) CCCCCCCCCCCCCCCC(=O)NCCO [PEA, palmitoylethanolamide] | 122

---

- EXPERIMENTAL DETAILS: in vitro
- STATED CONDITIONS: male, CD-1, mouse, 10 min, 1 μM
MEASURED PROPERTY: Concentration (μM) of analyte PEA, 10 min (µM)

1. CC/C=C\C/C=C\C/C=C\C/C=C\C/C=C\CCCC(=O)OCCNC(=O)CCCCCCCCCCCCCCC [Compound I-5] | 0.11
2. CCCCCCCCCCCCCCCC(=O)NCCOC(=O)CCC(=O)OCC(COC(=O)CCC)OC(=O)CCC (stereo not shown) [Compound I-11] | 0.021
3. CCCCCCCCCCCCCCCC(=O)NCCOC(=O)CCC(=O)OCC(COC(=O)CCCCCCC)OC(=O)CCCCCCC (stereo not shown) [Compound I-3, PEA-Succinate-Glycerol-Di-Caprylic] | 0.026
4. CCCCCCCCCCCCCCCC(=O)NCCOC(=O)CCC(=O)OC[C@H]1O[C@@](CO)(O[C@H]2O[C@H](CO)[C@@H](O)[C@H](O)[C@H]2O)[C@@H](O)[C@@H]1O [Compound I-7] | 0.24
5. CCCCCCCCCCCCCCCC(=O)NCCOC(=O)CCC(=O)OCC(O)CO (stereo not shown) [Compound I-9] | 0.12
6. CCCCC/C=C\C/C=C\CCCCCCCC(=O)OCCNC(=O)CCCCCCCCCCCCCCC [Compound I-6] | 0.14
7. CCCCCCCCCCCCCCCC(=O)NCCOC(=O)CCC [Compound I-2] | 0.50

---

Here the recorded % Remaining of Initial (n = 1), 15 min is given for each entry.
- EXPERIMENTAL DETAILS: Plasma stability (37° C., pH 7.4), dog
- Type: in vitro ADME, Beagle dog
- STATED CONDITIONS: dog plasma, test article 1 μM, 37° C., pH 7.4, 15 min
MEASURED PROPERTY: % Remaining of Initial (n = 1), 15 min (%)

1) CCCCCCCCCCCCCCCC(=O)NCCOC(=O)CCC | 95
2) CCCCCCCCCCCCCCCC(=O)NCCOC(=O)CCC(=O)OCC(COC(=O)CCC)OC(=O)CCC (stereo not shown) | 61
3) CCCCCCCCCCCCCCCC(=O)NCCOC(=O)CCC(=O)OCC(O)CO (stereo not shown) | 8.7
4) CCCCC/C=C\C/C=C\CCCCCCCC(=O)OCCNC(=O)CCCCCCCCCCCCCCC | 55
5) CC/C=C\C/C=C\C/C=C\C/C=C\C/C=C\CCCC(=O)OCCNC(=O)CCCCCCCCCCCCCCC | 87
6) CCCCCCCCCCCCCCCC(=O)NCCOC(=O)CCC(=O)OCC(COC(=O)CCCCCCC)OC(=O)CCCCCCC (stereo not shown) [Compound I-3, PEA-Succinate-Glycerol-Di-Caprylic] | 90

---

Here the recorded Concentration (μM) of analyte PEA, 30 min is given for each entry.
- EXPERIMENTAL DETAILS: in vitro
- STATED CONDITIONS: male, Beagle, dog, 30 min, 1 μM
MEASURED PROPERTY: Concentration (μM) of analyte PEA, 30 min (µM)

1) CCCCCCCCCCCCCCCC(=O)NCCOC(=O)CCC [Compound I-2] | 0.53
2) CCCCC/C=C\C/C=C\CCCCCCCC(=O)OCCNC(=O)CCCCCCCCCCCCCCC [Compound I-6] | 0.35
3) CCCCCCCCCCCCCCCC(=O)NCCOC(=O)CCC(=O)OC[C@H]1O[C@@](CO)(O[C@H]2O[C@H](CO)[C@@H](O)[C@H](O)[C@H]2O)[C@@H](O)[C@@H]1O [Compound I-7] | 0.51
4) CCCCCCCCCCCCCCCC(=O)NCCOC(=O)CCC(=O)OCC(O)CO (stereo not shown) [Compound I-9] | 0.46
5) CCCCCCCCCCCCCCCC(=O)NCCOC(=O)CCC(=O)OCC(COC(=O)CCC)OC(=O)CCC (stereo not shown) [Compound I-11] | 0.74
6) CCCCCCCCCCCCCCCC(=O)NCCOC(=O)CCC(=O)OCC(COC(=O)CCCCCCC)OC(=O)CCCCCCC (stereo not shown) [Compound I-3, PEA-Succinate-Glycerol-Di-Caprylic] | 0.29
7) CC/C=C\C/C=C\C/C=C\C/C=C\C/C=C\CCCC(=O)OCCNC(=O)CCCCCCCCCCCCCCC [Compound I-5] | 0.25

---

- EXPERIMENTAL DETAILS: in vitro
- STATED CONDITIONS: male, Sprague-Dawley, rat, s9, 1 h, 1 μM
MEASURED PROPERTY: % Remaining of Initial (n = 1), 60 min (%)

1. CCCCC/C=C\C/C=C\CCCCCCCC(=O)OCCNC(=O)CCCCCCCCCCCCCCC | 89
2. CCCCCCCCCCCCCCCC(=O)NCCOC(=O)CCC(=O)OCC(COC(=O)CCCCCCC)OC(=O)CCCCCCC (stereo not shown) [Compound I-3, PEA-Succinate-Glycerol-Di-Caprylic] | 52
3. CC/C=C\C/C=C\C/C=C\C/C=C\C/C=C\CCCC(=O)OCCNC(=O)CCCCCCCCCCCCCCC | 67
4. CCCCCCCCCCCCCCCC(=O)NCCOC(=O)CCC(=O)OC[C@H]1O[C@@](CO)(O[C@H]2O[C@H](CO)[C@@H](O)[C@H](O)[C@H]2O)[C@@H](O)[C@@H]1O | 1.4

---

- EXPERIMENTAL DETAILS: Plasma stability (37° C., pH 7.4), dog
- Type: in vitro ADME, Beagle dog
- STATED CONDITIONS: dog plasma, test article 1 μM, 37° C., pH 7.4, 30 min
Here the recorded % Remaining of Initial (n = 1), 30 min is given for each entry.
MEASURED PROPERTY: % Remaining of Initial (n = 1), 30 min (%)

1) CCCCCCCCCCCCCCCC(=O)NCCOC(=O)CCC | 71
2) CCCCCCCCCCCCCCCC(=O)NCCOC(=O)CCC(=O)OCC(COC(=O)CCC)OC(=O)CCC (stereo not drawn) | 40
3) CC/C=C\C/C=C\C/C=C\C/C=C\C/C=C\CCCC(=O)OCCNC(=O)CCCCCCCCCCCCCCC | 98
